# Assay Explanation: Cmax in Sprague-Dawley rat at 1 mg/ml, iv
# Type: ADME, organism-based
# Parameters: dose 1 mg/ml, route intravenous
# Conditions: in vivo
Result Type: Cmax
Could you write the number and then its unit?

Prompt line: Any idea what its Cmax is? The compound is Cc1cc(-c2cnn3c(NCC4CCOCC4)nc(Oc4ccccc4)nc23)ccc1C(=O)NC1CC1
Response line: 411 ng/mL

====

# Assay Explanation: Cmax in CD-1 nude mouse at 70 mg/ml, po
# Assay type: ADME, organism-based
# Design: dose 70 mg/ml, route oral
# Conditions: in vivo
Result Type: Cmax (ng/mL)
Report as a plain number; the unit ng/mL is understood.

Prompt line: Any idea what its Cmax is? The compound is Cc1cc(-c2cnn3c(NCC4CCOCC4)nc(Oc4ccccc4)nc23)ccc1C(=O)NC1CC1
Response line: 7700
